Where do the numbers come from? From the supplement of paper PMC10065799.

- tgt: FGFR3 (UniProt P22607)
- Sequence (P22607 whole entry, looked up): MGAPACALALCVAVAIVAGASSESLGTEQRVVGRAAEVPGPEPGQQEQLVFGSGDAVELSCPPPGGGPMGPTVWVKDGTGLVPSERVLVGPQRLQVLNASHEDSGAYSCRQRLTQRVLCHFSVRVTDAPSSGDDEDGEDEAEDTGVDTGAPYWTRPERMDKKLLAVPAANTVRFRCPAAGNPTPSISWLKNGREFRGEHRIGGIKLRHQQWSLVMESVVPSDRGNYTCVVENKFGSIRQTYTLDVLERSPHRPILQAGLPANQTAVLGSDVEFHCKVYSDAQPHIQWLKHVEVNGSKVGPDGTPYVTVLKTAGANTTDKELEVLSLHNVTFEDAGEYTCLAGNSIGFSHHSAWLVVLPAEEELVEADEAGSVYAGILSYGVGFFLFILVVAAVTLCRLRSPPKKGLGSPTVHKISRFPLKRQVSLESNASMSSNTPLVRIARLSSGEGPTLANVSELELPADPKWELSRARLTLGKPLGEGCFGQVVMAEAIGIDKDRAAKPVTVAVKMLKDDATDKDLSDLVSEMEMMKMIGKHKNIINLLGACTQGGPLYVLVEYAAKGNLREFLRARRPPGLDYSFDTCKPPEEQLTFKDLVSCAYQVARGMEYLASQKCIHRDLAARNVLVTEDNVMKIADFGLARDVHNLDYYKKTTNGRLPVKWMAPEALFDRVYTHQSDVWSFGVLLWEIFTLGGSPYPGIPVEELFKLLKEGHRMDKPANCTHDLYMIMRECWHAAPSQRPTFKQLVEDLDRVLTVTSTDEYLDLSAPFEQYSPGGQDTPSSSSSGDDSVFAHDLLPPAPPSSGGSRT
- protocol_details: phosphorylation enrichment, bacterial display (enrichment ratio); higher = better substrate or ligand; peptides without Tyr show the background;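 note: 11-residue human phosphosite peptides and single-mutation variants displayed on the E. coli surface, counted by deep sequencing, each peptide's frequency after selection divided by its frequency in the unselected input library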;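 note: frequency after pTyr selection over input frequency; kinase dosed for 20-30% of maximal phosphorylation in three min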
property_measured: phosphorylation enrichment
Could you keep your reply to the number by itself?

Query: Consider the sequence CPSLPYSPVSS [CAMKK2_Y128] and give its measured phosphorylation enrichment.
Result: 0.7

Query: Suppose we examine the sequence KPGVNYYFRVS ; what phosphorylation enrichment value has been reported?
Result: 0.7

Query: So what does the record say about phosphorylation enrichment for NTGGFYDLFGG [PTPN11_Y63_D61G_YF] ?
Result: 0.719

Query: Look up phosphorylation enrichment for this sequence: RKGIRYLTSGL [PIGA_Y82]
Result: 0.688
